These data points were gathered from patent US9096601B2.

# Tested on: squamous cell carcinoma cell strain A431
# experiment-summary: In-vitro tumor cell proliferation inhibition, MTT
# Type: cell-based, human
# test-parameters: 72 hours
Could you please mark class 1 for values of IC50 below 2000 nM and class 0 for values at or above it?

Strictly below 2000 nM: is that where IC50 of CC(C)n1c(Nc2ccc(C(F)(F)F)cc2)nc2cnc(Nc3ccc(N4CCN(C)CC4)cc3)nc21 sits?
class 0

Is IC50 of CC(C)n1c(Nc2ccc(C(=O)Nc3cccc(F)c3)cc2)nc2cnc(Nc3ccc(N4CCN(C)CC4)cc3)nc21 strictly below 2000 nM?
class 0

Hi there! Is IC50 for CC(C)n1c(Nc2ccc(F)c(Cl)c2)nc2cnc(Nc3ccc(N4CCN(C)CC4)cc3)nc21 below 2000 nM, do you know?
class 1

Strictly below 2000 nM in IC50? CC(C)n1c(Nc2ccc(OCc3cccc(F)c3)c(Cl)c2)nc2cnc(Nc3ccc(N4CCN(C)CC4)cc3)nc21
class 0

In plain terms, does CC(C)n1c(Nc2ccc(Cl)nc2)nc2cnc(Nc3ccc(N4CCN(C)CC4)cc3)nc21 come in under 2000 nM for IC50?
class 0

# TODO verify IC50 < 2000 nM strictly for this molecule: CN1CCN(c2ccc(Nc3ncc4nc(Nc5ccccc5)n(C5CCCCC5)c4n3)cc2)CC1
class 1

Given the entry CN1CCN(c2ccc(Nc3ncc4nc(Nc5ccc(Br)cc5)n(C5CCCC5)c4n3)cc2)CC1 , would its reported IC50 be below 2000 nM?
class 1
